Tested on: human PBMC
MEASUREMENT DESCRIPTION: Chemokine induction by host defense peptides in human PBMC (ELISA)
Format: cell-based
MEASUREMENT CONDITIONS: Table 2, JK peptides, human PBMCs, peptide concentration 20 μg/ml
TRUE means recorded Chemokine Induction Gro-α is 300 pg/mL or above; FALSE means it is below 300 pg/mL.

Illustrative cases are given below, each with its answer.
SUBSTANCE | QUALITATIVE LABEL
JK1: peptide VFLRRIRVIVIR (SEQ ID NO:2) (JK1) | TRUE
JK4: peptide VQLRRIRVWVIR (SEQ ID NO:5) (JK4) | FALSE
JK6: peptide VQWRRIRVWVIR (SEQ ID NO:7) (JK6) | FALSE
JK5: peptide VQWRAIRVRVIR (SEQ ID NO:6) (JK5) | TRUE

Here is another substance to look at.
**Q:** Would you say JK3: peptide VQLRAIRVRVIR (SEQ ID NO:4) (JK3) shows Chemokine Induction Gro-α at minimum 300 pg/mL?
**A:** TRUE
